study.target: UniProtKB P49759
Sequence (P49759 129-484 limits assumed): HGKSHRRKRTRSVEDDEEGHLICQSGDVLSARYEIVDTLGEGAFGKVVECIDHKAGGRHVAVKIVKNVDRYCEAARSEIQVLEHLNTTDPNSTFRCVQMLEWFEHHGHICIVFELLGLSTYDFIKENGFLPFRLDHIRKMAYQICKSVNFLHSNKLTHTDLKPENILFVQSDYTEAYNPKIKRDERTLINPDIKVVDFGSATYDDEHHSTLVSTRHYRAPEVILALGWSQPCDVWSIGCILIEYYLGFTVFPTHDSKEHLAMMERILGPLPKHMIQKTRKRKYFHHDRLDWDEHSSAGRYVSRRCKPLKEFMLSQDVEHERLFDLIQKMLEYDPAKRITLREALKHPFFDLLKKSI
The following compounds are listed with their measured IC50 values.

Recorded IC50, per entry:
COc1cc(P2(=O)CCN(C3CC3)CC2)ccc1Nc1nc(NC2CCCC2)c2cc[nH]c2n1 301 to 1000 nM
COc1cc(P2(=O)CCN(C3CC3)CC2)ccc1Nc1nc(NC2CCOCC2)c2c(C(F)(F)F)c[nH]c2n1 < 100 nM
COc1cc(S(C)(=O)=O)ccc1Nc1nc(NC2CCCCC2)c2c(C#N)c[nH]c2n1 301 to 1000 nM
COc1cc(S(=O)(=O)N2CCC(N3CCOCC3)CC2)ccc1Nc1nc(NC2CCC2)c2c(C#N)c[nH]c2n1 101 to 300 nM

Next:
# value lookup — system UniProtKB P49759, readout IC50, item `COc1cc(S(=O)(=O)N2CCC(N3CCOCC3)CC2)ccc1Nc1nc(NCC(C)C)c2c(C(F)(F)F)c[nH]c2n1`
301 to 1000 nM

All values here come from patent US20230066011A1.
